# measurementTarget: Integrin alpha-IIb/beta-3 (Homo sapiens, UniProt P05106+P08514)
# Sequence (P05106 27-788 limits assumed): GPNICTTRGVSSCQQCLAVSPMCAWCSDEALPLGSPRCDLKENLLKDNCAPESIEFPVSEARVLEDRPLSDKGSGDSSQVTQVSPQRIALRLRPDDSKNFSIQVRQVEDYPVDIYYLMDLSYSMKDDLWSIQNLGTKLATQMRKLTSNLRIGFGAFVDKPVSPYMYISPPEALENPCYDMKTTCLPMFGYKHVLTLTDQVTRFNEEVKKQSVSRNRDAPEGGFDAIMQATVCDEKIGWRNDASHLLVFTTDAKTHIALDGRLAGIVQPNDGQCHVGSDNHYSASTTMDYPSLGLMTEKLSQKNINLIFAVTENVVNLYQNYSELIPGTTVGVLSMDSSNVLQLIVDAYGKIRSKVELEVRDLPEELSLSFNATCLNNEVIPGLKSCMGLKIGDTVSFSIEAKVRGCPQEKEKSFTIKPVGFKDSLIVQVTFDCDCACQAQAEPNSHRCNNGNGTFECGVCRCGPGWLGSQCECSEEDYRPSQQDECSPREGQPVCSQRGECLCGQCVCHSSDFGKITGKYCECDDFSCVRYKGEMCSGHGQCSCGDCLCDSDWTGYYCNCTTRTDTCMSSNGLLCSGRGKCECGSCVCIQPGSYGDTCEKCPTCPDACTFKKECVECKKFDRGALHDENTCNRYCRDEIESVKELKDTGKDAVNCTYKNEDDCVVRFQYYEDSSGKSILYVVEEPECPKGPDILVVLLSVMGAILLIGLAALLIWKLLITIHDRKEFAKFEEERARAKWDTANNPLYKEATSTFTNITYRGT
# Sequence (P08514 32-887 limits assumed): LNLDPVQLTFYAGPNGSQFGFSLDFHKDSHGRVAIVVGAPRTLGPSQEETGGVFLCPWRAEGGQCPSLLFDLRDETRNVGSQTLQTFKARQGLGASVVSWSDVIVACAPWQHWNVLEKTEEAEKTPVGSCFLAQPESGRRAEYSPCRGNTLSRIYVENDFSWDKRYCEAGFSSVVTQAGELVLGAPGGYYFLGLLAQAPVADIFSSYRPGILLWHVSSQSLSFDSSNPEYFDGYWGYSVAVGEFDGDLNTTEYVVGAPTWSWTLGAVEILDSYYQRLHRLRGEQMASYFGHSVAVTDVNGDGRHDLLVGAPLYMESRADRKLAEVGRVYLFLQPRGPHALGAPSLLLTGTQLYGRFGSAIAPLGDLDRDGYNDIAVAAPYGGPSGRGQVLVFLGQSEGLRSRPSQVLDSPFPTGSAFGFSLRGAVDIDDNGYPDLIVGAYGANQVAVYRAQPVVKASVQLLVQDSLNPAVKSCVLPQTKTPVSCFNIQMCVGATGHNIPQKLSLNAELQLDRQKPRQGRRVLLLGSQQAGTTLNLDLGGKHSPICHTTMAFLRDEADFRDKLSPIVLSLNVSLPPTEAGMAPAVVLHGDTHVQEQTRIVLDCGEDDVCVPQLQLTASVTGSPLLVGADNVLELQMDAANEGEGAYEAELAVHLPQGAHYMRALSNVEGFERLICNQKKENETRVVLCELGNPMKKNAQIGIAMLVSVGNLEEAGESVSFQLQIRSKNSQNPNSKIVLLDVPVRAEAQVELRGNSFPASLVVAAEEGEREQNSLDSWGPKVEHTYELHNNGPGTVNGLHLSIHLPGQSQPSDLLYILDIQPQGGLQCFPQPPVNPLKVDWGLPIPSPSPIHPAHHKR
# Sequence (P08514 891-1039 limits assumed): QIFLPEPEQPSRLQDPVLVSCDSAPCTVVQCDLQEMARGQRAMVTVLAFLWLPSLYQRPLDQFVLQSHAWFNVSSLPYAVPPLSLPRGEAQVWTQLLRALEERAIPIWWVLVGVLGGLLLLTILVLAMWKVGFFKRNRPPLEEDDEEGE
# assayInfo: Inhibition of aggregation of human gel-purified platelets (GPIIbIIIa GPP)
quantityMeasured: IC50 (µM)
Report as a plain number; the unit µM is understood.

Can you share its IC50? I mean this compound: Cc1cc(C)c(S(=O)(=O)N[C@@H](CNC(=O)C2=NOC(CCCC(=O)Nc3ncc[nH]3)C2)C(=O)O)c(C)c1 (stereo partly specified) 61

* * *

# measurementTarget: Integrin alpha-V/beta-3 (Homo sapiens, UniProt P05106+P06756)
# Sequence (P05106 27-788 limits assumed): as the sequence (P05106 27-788 limits assumed) above
# Sequence (P06756 31-889 limits assumed): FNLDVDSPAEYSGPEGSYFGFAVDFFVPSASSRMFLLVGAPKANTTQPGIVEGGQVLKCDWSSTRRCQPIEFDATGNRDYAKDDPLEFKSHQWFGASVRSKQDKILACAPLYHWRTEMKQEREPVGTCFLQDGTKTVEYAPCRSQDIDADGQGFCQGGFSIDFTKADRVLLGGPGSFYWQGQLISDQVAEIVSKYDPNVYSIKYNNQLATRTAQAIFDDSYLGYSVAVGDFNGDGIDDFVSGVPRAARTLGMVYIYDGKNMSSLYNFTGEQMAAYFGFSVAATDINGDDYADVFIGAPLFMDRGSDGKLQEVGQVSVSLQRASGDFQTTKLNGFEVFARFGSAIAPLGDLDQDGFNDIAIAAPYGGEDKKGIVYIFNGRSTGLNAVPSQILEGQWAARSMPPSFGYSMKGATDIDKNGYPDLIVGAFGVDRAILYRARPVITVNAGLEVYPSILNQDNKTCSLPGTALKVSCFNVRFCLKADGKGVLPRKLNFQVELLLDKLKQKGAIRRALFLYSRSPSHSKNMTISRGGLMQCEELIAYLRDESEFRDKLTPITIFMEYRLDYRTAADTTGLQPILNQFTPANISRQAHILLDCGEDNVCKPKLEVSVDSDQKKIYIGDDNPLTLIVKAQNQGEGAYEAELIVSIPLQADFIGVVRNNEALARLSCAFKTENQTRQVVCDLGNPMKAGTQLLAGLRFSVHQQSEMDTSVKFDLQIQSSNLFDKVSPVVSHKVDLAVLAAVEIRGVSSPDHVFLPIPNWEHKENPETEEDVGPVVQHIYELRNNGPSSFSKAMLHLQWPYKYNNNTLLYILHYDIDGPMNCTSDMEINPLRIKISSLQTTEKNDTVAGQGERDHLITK
# Sequence (P06756 891-1048 limits assumed): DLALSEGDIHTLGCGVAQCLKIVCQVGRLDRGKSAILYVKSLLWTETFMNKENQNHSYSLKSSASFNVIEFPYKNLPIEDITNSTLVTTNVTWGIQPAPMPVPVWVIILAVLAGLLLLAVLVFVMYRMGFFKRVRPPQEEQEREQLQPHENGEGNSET
# assayInfo: Inhibitory activity against beta-3-transfected 293 cells using alpha-V beta-3 antagonism assay
# Assay type: functional, cell-based, HEK293
pIC50: −log10 of the molar value.
Give criterion met when the value for pIC50 is at least 7. Give criterion not met when it is less.

Check this molecule for pIC50 at or above 7: O=C(NC[C@H](NS(=O)(=O)c1ccc(Cl)c(Cl)c1)C(=O)O)c1ccc2c(cnn2CCCNc2ncc[nH]2)c1 criterion met

Check this molecule for pIC50 at or above 7: Cc1cc(C)c(S(=O)(=O)N[C@@H](CNC(=O)c2ccc3c(cnn3CCC(=O)Nc3ncc[nH]3)c2)C(=O)O)c(C)c1 criterion met

Check this molecule for pIC50 at or above 7: CCCCS(=O)(=O)N[C@@H](CNC(=O)c1ccc2c(cnn2CCCNc2ccccn2)c1)C(=O)O criterion not met

Check this molecule for pIC50 at or above 7: O=C(CCc1ccccc1)N[C@@H](CNC(=O)c1ccc2c(cnn2CCCNc2ccccn2)c1)C(=O)O criterion not met

Check this molecule for pIC50 at or above 7: Cc1cc(-c2ccccc2)cc(C)c1S(=O)(=O)N[C@@H](CNC(=O)c1ccc2c(cnn2CCCNc2ncc[nH]2)c1)C(=O)O criterion met

Check this molecule for pIC50 at or above 7: CC(C)CCC(=O)N[C@@H](CNC(=O)c1ccc2c(cnn2CCCNc2ccccn2)c1)C(=O)O criterion not met

Check this molecule for pIC50 at or above 7: CC(C)COC(=O)N[C@@H](CNC(=O)c1ccc2c(cnn2CCCNc2ccccn2)c1)C(=O)O criterion not met

* * *

# measurementTarget: Integrin alpha-V/beta-3 (Homo sapiens, UniProt P05106+P06756)
# assayInfo: Inhibition of adhesion of integrin beta-3-transfected HEK293 cells to fibrinogen
# Assay type: functional, cell-based
quantityMeasured: pIC50
Field pIC50 (float): negative decimal logarithm of the concentration in molar.

Can you share its pIC50? I mean this compound: Cc1cc(C)c(S(=O)(=O)N[C@@H](CNC(=O)c2ccc3c(cnn3CCCNC3=NCCN3)c2)C(=O)O)c(C)c1 7.15

Can you share its pIC50? I mean this compound: Cc1cc(C)c(S(=O)(=O)N[C@@H](CNC(=O)c2ccc3c(cnn3CCCNC3=NCCCN3)c2)C(=O)O)c(C)c1 7.55

* * *

# measurementTarget: Integrin alpha-V/beta-3 (Homo sapiens, UniProt P05106+P06756)
# assayInfo: Inhibition of Vitronectin receptor (alpha V beta 3) binding
# Format: protein-complex assay
Answer each item with its documented IC50.
Report as a plain number; the unit nM is understood.

Value wanted: IC50 (Integrin alpha-V/beta-3 (Homo sapiens, UniProt P05106+P06756)) of entry O=C(N[C@H](CNC(=O)c1ccc2cn(CCCNC3=NCCN3)nc2c1)C(=O)O)OCc1ccccc1 25

Value wanted: IC50 (Integrin alpha-V/beta-3 (Homo sapiens, UniProt P05106+P06756)) of entry O=C(N[C@@H](CNC(=O)c1cccc2c1cnn2CCCNC1=NCCN1)C(=O)O)OCc1ccccc1 7.3

Value wanted: IC50 (Integrin alpha-V/beta-3 (Homo sapiens, UniProt P05106+P06756)) of entry O=C(N[C@H](CNC(=O)c1ccc2cnn(CCCNC3=NCCN3)c2c1)C(=O)O)OCc1ccccc1 1500

Value wanted: IC50 (Integrin alpha-V/beta-3 (Homo sapiens, UniProt P05106+P06756)) of entry O=C(N[C@@H](CNC(=O)c1ccc2nn(CCCNC3=NCCN3)cc2c1)C(=O)O)OCc1ccccc1 55

Value wanted: IC50 (Integrin alpha-V/beta-3 (Homo sapiens, UniProt P05106+P06756)) of entry O=C(N[C@@H](CNC(=O)c1ccc2c(cnn2CCNC2=NCCN2)c1)C(=O)O)OCc1ccccc1 51

Value wanted: IC50 (Integrin alpha-V/beta-3 (Homo sapiens, UniProt P05106+P06756)) of entry O=C(N[C@@H](CNC(=O)c1ccc2c(cnn2CCCCNC2=NCCN2)c1)C(=O)O)OCc1ccccc1 250

Value wanted: IC50 (Integrin alpha-V/beta-3 (Homo sapiens, UniProt P05106+P06756)) of entry O=C(N[C@@H](CNC(=O)c1ccc2c(cnn2CCCNC2=NCCN2)c1)C(=O)O)OCc1ccccc1 3.8

* * *

# measurementTarget: Integrin alpha-V/beta-3 (Homo sapiens, UniProt P05106+P06756)
# assayInfo: Inhibitory activity against beta-3-transfected 293 cells using alphaV-beta3 antagonism assay
# Assay type: functional, cell-based, HEK293
quantityMeasured: IC50

Can you share its IC50? I mean this compound: O=C(N[C@H](CNC(=O)c1ccc2cnn(CCCNC3=NCCN3)c2c1)C(=O)O)OCc1ccccc1 > 1 µM

Can you share its IC50? I mean this compound: O=C(N[C@@H](CNC(=O)c1ccc2c(cnn2CCCNC2=NCCN2)c1)C(=O)O)OCc1ccccc1 0.46 µM

Can you share its IC50? I mean this compound: O=C(N[C@@H](CNC(=O)c1cccc2c1cnn2CCCNC1=NCCN1)C(=O)O)OCc1ccccc1 > 1 µM

Can you share its IC50? I mean this compound: Cc1cc(C)c(S(=O)(=O)N[C@@H](CNC(=O)c2cccc3c2cnn3CCCNc2ncc[nH]2)C(=O)O)c(C)c1 0.025 µM

Can you share its IC50? I mean this compound: O=C(N[C@@H](CNC(=O)c1ccc2c(cnn2CCNC2=NCCN2)c1)C(=O)O)OCc1ccccc1 > 1 µM

Can you share its IC50? I mean this compound: O=C(N[C@@H](CNC(=O)c1ccc2nn(CCCNC3=NCCN3)cc2c1)C(=O)O)OCc1ccccc1 > 1 µM

Can you share its IC50? I mean this compound: O=C(N[C@H](CNC(=O)c1ccc2cn(CCCNC3=NCCN3)nc2c1)C(=O)O)OCc1ccccc1 > 1 µM

Can you share its IC50? I mean this compound: O=C(N[C@@H](CNC(=O)c1ccc2c(cnn2CCCCNC2=NCCN2)c1)C(=O)O)OCc1ccccc1 > 1 µM

* * *

# measurementTarget: Integrin alpha-V/beta-3 (Homo sapiens, UniProt P05106+P06756)
# assayInfo: Inhibitory activity against beta-3-transfected 293 cells using alpha-V beta-3 antagonism assay
# Type: functional, cell-based, HEK293
quantityMeasured: log10(IC50) (log10 of the value in nM)
On a log10 scale: recorded IC50, unit nM.

Can you share its log10(IC50)? I mean this compound: O=C(NC[C@H](NS(=O)(=O)c1ccc(Cl)cc1)C(=O)O)c1ccc2c(cnn2CCCNc2ncc[nH]2)c1 1.00

Can you share its log10(IC50)? I mean this compound: O=C(NC[C@H](NS(=O)(=O)c1ccc(C(F)(F)F)cc1)C(=O)O)c1ccc2c(cnn2CCCNc2ncc[nH]2)c1 1.72

Can you share its log10(IC50)? I mean this compound: Cc1cc(C)c(NS(=O)(=O)N[C@@H](CNC(=O)c2ccc3c(cnn3CCCNc3ccccn3)c2)C(=O)O)c(C)c1 2.56

Can you share its log10(IC50)? I mean this compound: O=C(NC[C@H](NS(=O)(=O)c1ccccc1)C(=O)O)c1ccc2c(cnn2CCCNc2ncc[nH]2)c1 1.64

Can you share its log10(IC50)? I mean this compound: Cc1ccc(S(=O)(=O)N[C@@H](CNC(=O)c2ccc3c(cnn3CCCNc3ncc[nH]3)c2)C(=O)O)cc1 1.20

Can you share its log10(IC50)? I mean this compound: O=C(NC[C@H](NS(=O)(=O)c1ccc2ccccc2c1)C(=O)O)c1ccc2c(cnn2CCCNc2ncc[nH]2)c1 0.67

Can you share its log10(IC50)? I mean this compound: COc1ccc(S(=O)(=O)N[C@@H](CNC(=O)c2ccc3c(cnn3CCCNc3ncc[nH]3)c2)C(=O)O)cc1 1.41

Can you share its log10(IC50)? I mean this compound: O=C(NC[C@H](NS(=O)(=O)c1c(Cl)cccc1Cl)C(=O)O)c1ccc2c(cnn2CCCNc2ncc[nH]2)c1 0.93

Can you share its log10(IC50)? I mean this compound: Cc1cc(C)c(S(=O)(=O)N[C@H](CNC(=O)c2ccc3c(cnn3CCCNc3ncc[nH]3)c2)C(=O)O)c(C)c1 2.46

Can you share its log10(IC50)? I mean this compound: Cc1cc(C)c(S(=O)(=O)N[C@@H](CNC(=O)c2ccc3c(cnn3CCCNc3ncc[nH]3)c2)C(=O)O)c(C)c1 0.36

Can you share its log10(IC50)? I mean this compound: O=C(N[C@@H](CNC(=O)c1ccc2c(cnn2CCCNc2ccccn2)c1)C(=O)O)OCc1ccccc1 2.48

Can you share its log10(IC50)? I mean this compound: Cc1cccc(C)c1S(=O)(=O)N[C@@H](CNC(=O)c1ccc2c(cnn2CCCNc2ncc[nH]2)c1)C(=O)O 1.00

Can you share its log10(IC50)? I mean this compound: O=C(NC[C@H](NS(=O)(=O)c1ccc(-c2ccccc2)cc1)C(=O)O)c1ccc2c(cnn2CCCNc2ncc[nH]2)c1 1.54

Can you share its log10(IC50)? I mean this compound: O=C(NC[C@H](NS(=O)(=O)c1ccccc1)C(=O)O)c1ccc2c(cnn2CCCNc2ccccn2)c1 2.08

Can you share its log10(IC50)? I mean this compound: O=C(NC[C@H](NS(=O)(=O)NCc1ccccc1)C(=O)O)c1ccc2c(cnn2CCCNc2ccccn2)c1 2.78

Can you share its log10(IC50)? I mean this compound: Cc1cc(C)c(S(=O)(=O)N[C@@H](CNC(=O)c2ccc3c(cnn3CCCNc3ccccn3)c2)C(=O)O)c(C)c1 1.68

Can you share its log10(IC50)? I mean this compound: O=C(NC[C@H](NS(=O)(=O)Nc1ccccc1)C(=O)O)c1ccc2c(cnn2CCCNc2ccccn2)c1 2.23

Can you share its log10(IC50)? I mean this compound: CC(=O)Nc1ccc(S(=O)(=O)N[C@@H](CNC(=O)c2ccc3c(cnn3CCCNc3ncc[nH]3)c2)C(=O)O)cc1 2.18

Can you share its log10(IC50)? I mean this compound: O=C(NC[C@H](NS(=O)(=O)c1cccc2ccccc12)C(=O)O)c1ccc2c(cnn2CCCNc2ncc[nH]2)c1 1.11

Can you share its log10(IC50)? I mean this compound: Cc1cc(C)c(S(=O)(=O)N[C@@H](CC(=O)Nc2ccc3c(cnn3CCCNc3ccccn3)c2)C(=O)O)c(C)c1 2.92

Can you share its log10(IC50)? I mean this compound: CC(C)(C)c1ccc(S(=O)(=O)N[C@@H](CNC(=O)c2ccc3c(cnn3CCCNc3ncc[nH]3)c2)C(=O)O)cc1 2.08
